# tgt: Interstitial collagenase (Homo sapiens, UniProt P03956)
# Sequence (P03956 whole entry): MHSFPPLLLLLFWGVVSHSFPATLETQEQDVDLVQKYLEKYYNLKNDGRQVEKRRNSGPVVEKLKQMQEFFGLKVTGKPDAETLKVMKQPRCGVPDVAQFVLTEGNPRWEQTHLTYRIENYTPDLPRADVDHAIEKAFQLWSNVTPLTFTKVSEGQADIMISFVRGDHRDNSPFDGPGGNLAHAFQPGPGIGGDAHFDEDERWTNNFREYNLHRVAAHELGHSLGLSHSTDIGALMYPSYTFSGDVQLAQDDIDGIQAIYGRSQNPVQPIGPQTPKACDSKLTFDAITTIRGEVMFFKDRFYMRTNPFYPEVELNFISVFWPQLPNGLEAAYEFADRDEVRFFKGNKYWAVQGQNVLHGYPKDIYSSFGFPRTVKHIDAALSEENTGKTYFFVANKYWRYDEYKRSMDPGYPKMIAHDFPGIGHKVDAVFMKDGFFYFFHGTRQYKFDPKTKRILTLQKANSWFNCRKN
# protocol-description: Inhibition of recombinant human MMP1 assessed as substrate cleavage by measuring increase in fluorescence after 16 hrs
pIC50: −log10 of the molar value.
readout-kind: pIC50

In: Which pIC50 is reported with Interstitial collagenase (Homo sapiens, UniProt P03956) for this entry: "C[C@@H](C[C@@](C)(CS(=O)(=O)N1CCC(CCc2ccc(F)cc2Br)CC1)N(O)C=O)c1ncc(F)cn1" ?
Out: < 5.10

----------
# protocol-description: Intrinsic clearance in human liver microsomes
// microsomal CLint lookup, one value per entry

Worked examples, 2 compounds total:
| mol-smiles | microsomal CLint |
| --- | --- |
| C[C@@H](C[C@@](C)(CS(=O)(=O)N1CCN(CCc2ccc(Cl)cc2Cl)CC1)N(O)C=O)c1ncc(F)cn1 | 54 µL/min/mg |
| C[C@@H](C[C@@](C)(CS(=O)(=O)N1CCC(OCc2ccc(Cl)cc2Cl)CC1)N(O)C=O)c1ncc(F)cn1 | 107 µL/min/mg |

In: # lookup: microsomal CLint of "C[C@@H](C[C@@](C)(CS(=O)(=O)N1CCC(CCc2ccc(Cl)cc2Cl)CC1)N(O)C=O)c1ncc(F)cn1"
Out: 6.9 µL/min/mg

----------
Measurement record for Disintegrin and metalloproteinase domain-containing protein 17 (Homo sapiens); quantity recorded: IC50.
Just the number please, in nM, no unit attached.

Worked examples, 4 molecules total:
| mol-smiles | readout-kind | numeric-value |
| --- | --- | --- |
| Cc1cc(C(F)(F)F)cnc1CCC1CCN(S(=O)(=O)C[C@](C)(C[C@H](C)c2ncc(F)cn2)N(O)C=O)CC1 | IC50 | 24000 |
| C[C@@H](C[C@@](C)(CS(=O)(=O)N1CCC(CCc2ccc(F)cc2C(F)(F)F)CC1)N(O)C=O)c1ncc(F)cn1 | IC50 | 19 |
| C[C@@H](C[C@@](C)(CS(=O)(=O)N1CCC(CCc2ncc(C(F)(F)F)cc2Cl)CC1)N(O)C=O)c1ncc(F)cn1 | IC50 | 27000 |
| Cc1cc(C(F)(F)F)ccc1CCC1CCN(S(=O)(=O)C[C@](C)(C[C@H](C)c2ncc(F)cn2)N(O)C=O)CC1 | IC50 | 420 |

Field: next molecule
In: Which IC50 is reported with Disintegrin and metalloproteinase domain-containing protein 17 (Homo sapiens) for this entry: "Cc1cc(F)ccc1CCC1CCN(S(=O)(=O)C[C@](C)(C[C@H](C)c2ncc(F)cn2)N(O)C=O)CC1" ?
Out: 21

----------
# tgt: 72 kDa type IV collagenase (Homo sapiens, UniProt P08253)
# Sequence (P08253 whole entry): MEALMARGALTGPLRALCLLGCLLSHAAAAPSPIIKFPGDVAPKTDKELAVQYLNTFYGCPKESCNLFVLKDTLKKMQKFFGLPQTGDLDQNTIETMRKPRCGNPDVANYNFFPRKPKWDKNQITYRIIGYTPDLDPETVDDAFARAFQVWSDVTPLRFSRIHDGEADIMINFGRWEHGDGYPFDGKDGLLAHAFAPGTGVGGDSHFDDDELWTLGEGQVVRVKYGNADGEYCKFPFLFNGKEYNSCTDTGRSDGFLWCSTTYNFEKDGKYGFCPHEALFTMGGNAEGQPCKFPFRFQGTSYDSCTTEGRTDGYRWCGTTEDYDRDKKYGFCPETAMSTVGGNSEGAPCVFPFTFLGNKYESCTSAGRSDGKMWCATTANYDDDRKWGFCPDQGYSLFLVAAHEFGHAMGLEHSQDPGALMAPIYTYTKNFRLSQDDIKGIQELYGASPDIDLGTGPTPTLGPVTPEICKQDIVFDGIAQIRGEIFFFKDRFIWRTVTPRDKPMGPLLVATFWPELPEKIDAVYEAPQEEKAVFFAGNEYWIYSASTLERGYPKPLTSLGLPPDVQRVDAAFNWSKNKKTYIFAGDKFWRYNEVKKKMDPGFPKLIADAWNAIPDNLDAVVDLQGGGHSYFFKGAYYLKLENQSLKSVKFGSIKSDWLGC
# protocol-description: Inhibition of recombinant human MMP2 assessed as substrate cleavage by measuring increase in fluorescence after 16 hrs
readout-kind: log10(IC50) (log10 of the value in µM)
Would you kindly interpret these values as log10 of IC50 expressed in µM?

Worked examples, 6 compounds total:
| mol-smiles | tgt | readout-kind | numeric-value |
| --- | --- | --- | --- |
| C[C@@H](C[C@@](C)(CS(=O)(=O)N1CCC(CCc2cc(F)ccc2Cl)CC1)N(O)C=O)c1ncc(F)cn1 | 72 kDa type IV collagenase (Homo sapiens, UniProt P08253) | log10(IC50) | -0.30 |
| Cc1ccc(C)c(CCC2CCN(S(=O)(=O)C[C@](C)(C[C@H](C)c3ncc(F)cn3)N(O)C=O)CC2)c1 | 72 kDa type IV collagenase (Homo sapiens, UniProt P08253) | log10(IC50) | 0.62 |
| Cc1cc(CCC2CCN(S(=O)(=O)C[C@](C)(C[C@H](C)c3ncc(F)cn3)N(O)C=O)CC2)n(C)n1 | 72 kDa type IV collagenase (Homo sapiens, UniProt P08253) | log10(IC50) | 1.41 |
| Cc1cc(Cl)ccc1CCC1CCN(S(=O)(=O)C[C@](C)(C[C@H](C)c2ncc(F)cn2)N(O)C=O)CC1 | 72 kDa type IV collagenase (Homo sapiens, UniProt P08253) | log10(IC50) | -0.28 |
| Cc1cc(C(F)(F)F)cnc1CCC1CCN(S(=O)(=O)C[C@](C)(C[C@H](C)c2ncc(F)cn2)N(O)C=O)CC1 | 72 kDa type IV collagenase (Homo sapiens, UniProt P08253) | log10(IC50) | 0.40 |
| C[C@@H](C[C@@](C)(CS(=O)(=O)N1CCC(CCc2ccc(F)cc2C(F)(F)F)CC1)N(O)C=O)c1ncc(F)cn1 | 72 kDa type IV collagenase (Homo sapiens, UniProt P08253) | log10(IC50) | 0.28 |

Field: next compound
In: # lookup: log10(IC50) of "C[C@@H](C[C@@](C)(CS(=O)(=O)N1CCC(CCc2ncc(C(F)(F)F)cc2Cl)CC1)N(O)C=O)c1ncc(F)cn1"
Out: 0.45

Measured values drawn from ChEMBL document CHEMBL1681676 for this set.
